All figures here come from PubChem BioAssay (NCI).

- Tested on: BT-549 breast
- Experimental Details: NCI tumour cell line growth inhibition, 48 h
# TGI listing for each entry below
The figure you give is taken to be in µM; do not add the unit.

1) O=C(Nc1ccc(Cl)cc1)Oc1ccc(C(=S)Nc2ccc(Br)cc2)cc1 = 54.1
2) O=C(c1c(Cl)cc(Cl)cc1Cl)N(Cc1cccnc1)C(=S)N(Cc1cccnc1)C(=O)c1c(Cl)cc(Cl)cc1Cl = 9.59
3) O=C(Nc1ccc(-n2ccc3c(NC(=O)c4ccccc4)nccc32)cc1)c1cccc(C(F)(F)F)c1 = 22.3

Next, consider the following molecule.
Prompt: # input molecule: Cc1cc2c(C(C)C)c(O)c(O)c(C=NCC3CCCN4CCCCC34)c2cc1-c1cc2c(C=NCC3CCCN4CCCCC34)c(O)c(O)c(C(C)C)c2cc1C (stereo not drawn) ; wanted: its TGI
Completion: 36.4

---

# TGI listing for each entry below
- Test system: M19-MEL melanoma
- Experimental Details: NCI tumour cell line growth inhibition, 48 h

1) O=C1NC(=O)C2C1c1[nH]c3ccccc3c1C1CCCC12 (stereo not drawn) = > 100 µM

Prompt: # input compound: CC1(C)CC2(S(=O)(=O)c3ccccc3)ON1CC2S(=O)(=O)c1ccccc1 (stereo not drawn) ; wanted: its TGI
Completion: > 100 µM

Prompt: # input compound: COc1ccc2c(c1)CC[C@@H]1C2CC[C@]2(C)C(=O)N(CCN3CCCC3)C(=O)CC12 (stereo partly drawn) ; wanted: its TGI
Completion: 35.7 µM

Prompt: # input compound: COC1OC(C)C(OC(=O)C(C)(C)C)C(OS(=O)(=O)c2ccc(C)cc2)C1OS(=O)(=O)c1ccc(C)cc1 (stereo not drawn) ; wanted: its TGI
Completion: > 100 µM

Prompt: # input compound: O=C1c2ccccc2C2(O)Nc3c(ccc4ccccc34)C12O (stereo not drawn) ; wanted: its TGI
Completion: > 100 µM

Prompt: # input compound: C=C1CC(c2ccc(O)c(OC)c2)Oc2c(OC)cccc21 (stereo not drawn) ; wanted: its TGI
Completion: > 100 µM

Prompt: # input compound: `CN(C)CC/C(=N\Nc1c(F)c(F)c(F)c(F)c1F)c1ccccc1` ; wanted: its TGI
Completion: > 100 µM

Prompt: # input compound: CCOC(=O)C1N(S(=O)(=O)c2ccc(C)cc2)CCC12C(c1ccc(OC)c(OC)c1)=Nc1ccccc12 (stereo not drawn) ; wanted: its TGI
Completion: > 100 µM

Prompt: # input compound: `Cc1c(C(=N)N)oc2ccccc12` ; wanted: its TGI
Completion: > 100 µM

---

This section lists GI50 readings for MDA-MB-435.

1. N#Cc1ccccc1C#C/C=C\C#Cc1cccs1 = 2.11 µM
2. O=C(O)[C@@H]1CCCN1Cc1cc2cc3c(cc2c2cc(OCc4ccccc4)ccc12)OCO3 = 23.4 µM
3. COC(=O)c1ccc([C@H]2c3[nH]c4ccccc4c3C[C@H](C(=O)OC)N2C(=O)CCl)cc1 = 2.74 µM
4. COc1ccc(C(=O)/C=C/c2ccc(OCc3ccc(Cl)cc3)cc2)cc1OC = 150 µM

Next, consider the following molecule.
Prompt: For MDA-MB-435, provide GI50 of `CO/N=C(\COc1ccc2c(=O)cc(-c3ccccc3)oc2c1)c1ccc(F)cc1` please.
Completion: 10.3 µM

---

- Tested on: UO-31 renal
- Experimental Details: NCI tumour cell line growth inhibition, 48 h
# TGI listing for each entry below

1. COC(=O)c1ccccc1C1CN=NC12Cc1c(C)cccc1C2=O (stereo unspecified) = > 100 µM
2. NCc1ccc(O)c(O)c1 = > 100 µM
3. CC1=Nc2c(N)nc(N)nc2N(C)C1 = > 100 µM
4. O=c1c2c3c(sc2n2c(CCl)nnc2n1Cc1ccccc1)CCCC3 = 2.88 µM
5. COC(=O)CCCc1ccc2c(c1)CC1(Cc3ccccc3C1)C2 = > 100 µM
6. CCCOc1cc2c(cc1O)CC[C@@H]1[C@@H]2CC[C@]2(C)[C@@H](O)CC[C@@H]12 = > 57.2 µM
7. COc1ccc(O)cc1C=O = > 100 µM
8. Cc1ccc(NC(=O)CSc2nnc(Cc3ccccc3)o2)c(C)c1 = > 100 µM
9. COc1cccc(C2SCC(=O)N2c2ccc(-c3ccc(-n4c(-c5ccccc5)nc5ccccc5c4=O)cc3)cc2)c1OC (stereo unspecified) = > 100 µM
10. CCN(CC)C(=O)c1c(Cl)cc(N(CC)CC)oc1=O = > 100 µM

Next, consider the following molecule.
Prompt: # input molecule: C[C@@H]1CCC2[C@@H](C)[C@@H](OC3CCC(O)CC3)OC3O[C@@]4(C)CCC1[C@]32OO4 (stereo partly specified) ; wanted: its TGI
Completion: > 100 µM
